Hello, the source for this data is patent US20250090677A1, in case you need it.

# OD450 per record follows
target-of-assay: T1, recombinant protein CDH6 (UniProt P55285 54-615)
T1 construct: also called CDH6 recombinant protein; CDH6 antigen
T1 sequence (looked up): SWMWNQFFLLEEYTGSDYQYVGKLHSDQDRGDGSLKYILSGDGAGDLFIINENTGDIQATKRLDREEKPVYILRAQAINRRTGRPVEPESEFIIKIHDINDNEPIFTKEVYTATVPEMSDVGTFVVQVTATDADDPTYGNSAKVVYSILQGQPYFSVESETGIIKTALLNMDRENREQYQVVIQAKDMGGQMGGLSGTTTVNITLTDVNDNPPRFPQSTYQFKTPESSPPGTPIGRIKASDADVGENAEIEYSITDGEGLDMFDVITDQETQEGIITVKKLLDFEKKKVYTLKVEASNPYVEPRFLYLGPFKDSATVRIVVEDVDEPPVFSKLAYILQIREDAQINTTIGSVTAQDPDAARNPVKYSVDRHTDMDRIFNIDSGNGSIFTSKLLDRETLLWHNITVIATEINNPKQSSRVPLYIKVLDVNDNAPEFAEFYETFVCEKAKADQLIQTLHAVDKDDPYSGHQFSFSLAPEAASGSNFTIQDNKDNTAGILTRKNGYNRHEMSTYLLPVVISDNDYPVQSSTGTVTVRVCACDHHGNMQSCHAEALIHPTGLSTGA
experiment-summary: ELISA, CDH6 coated; antibody 0.78 ng/mL
# value in OD450; strip the unit string

Some entries whose results are on file:
binder="CL069707 antibody (antibody, V domains shown, Mouse monoclonal antibody from hybridoma, purified from ascites with Protein A/G; also called #23; No. 23) VH: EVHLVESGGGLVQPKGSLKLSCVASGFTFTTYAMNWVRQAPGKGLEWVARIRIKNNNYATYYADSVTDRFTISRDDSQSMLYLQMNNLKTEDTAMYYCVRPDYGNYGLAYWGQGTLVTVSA VL: EIVLTQSPTTMAASPGEKITITCSASSSISSHYLHWYQQKPGFSPKLLIYRSFYLASGVPLRFTGSGSGTSYSLTIGTMEAEDVATYYCQQDIVPLTFGAGTKLELK" attribute_measured=OD450 recorded_number=0.305
binder="CL069439 antibody (antibody, V domains shown, Mouse monoclonal antibody from hybridoma, purified from ascites with Protein A/G; also called #16; No. 16) VH: EVQLQQSGTELVRTGASVKISCKASGYSFTGYYIHWIKQSHGESLEWIGYISCFNGDTSYNQNFKDRATFNVDTSSSTAYMQFISLTSEDSAVYYCVRGRYGNFNYFDYWGQGTTLTVSS VL: DIVLTQSPASLAVSLGQRATISCRASESVEFYGTSLMQWFQQKPGHPPQLLIYATSNVDSGVPARFSASGSGTDFSLNIHPVEEADIAMYFCQQSRRIPWTFGGGTKLEIK" attribute_measured=OD450 recorded_number=0.647
binder="CL069066 antibody (antibody, V domains shown, Mouse monoclonal antibody from hybridoma, purified from ascites with Protein A/G; also called #4; No. 4) VH: EVKLLESGGGLVQPGGSLKLSCAASGFDFSRYWMTWVRQAPGKGLEWIGEINPDSSTINYTPSLKDKFIISRDNAKNTLYLQMNKVTSEDTALYYCTRRPHYYGYFDSWGQGTTLTVSS VL: DIVLTQSPASLAVSLGQRATISCRASESVEYYGTTLMQWYQQKPGQPPQLLIYAGSNVESGVPARFSGSGSGTEFSLNIHPVEEDDIGMYFCQQSRKVPWTFGGGTKLEIK" attribute_measured=OD450 recorded_number=0.094

Provide measured OD450 value, entry: CL069463 antibody (antibody, V domains shown, Mouse monoclonal antibody from hybridoma, purified from ascites with Protein A/G; also called #13; No. 13) VH: EVQLVESGGGLVQPKGSLKLSCAASGFTFNTYALTWVRQAPGKGLEWVGRIKSKNKDYETYYADSVKDRFTISRNDSQSLLYLQMNNLKTEDTAIYYCVRQNWNYFDYWGQGTTLTVSS VL: DIQMTQSPASLAASVGETVTITCRASENIYYSLAWYQQRQGKSPQLLIYNANSLKDGVPSRFSGSGSGTQYSMKINSMQPEDTATYFCQQAYDVPPTFGGGTKLEIK 0.211
